What follows is a collection of MIC values obtained with Bacillus subtilis ATCC 6633.
testReadout: MIC (µg/mL)

molecule=O=C(N/N=C/c1cc(Cl)cc(I)c1O)c1cccc(I)c1 testreadout=MIC unitssymbol=µg/mL modifier== measuredvalue=7.81
molecule=O=C(N/N=C/c1cc(Cl)cc(I)c1O)c1ccccc1I testreadout=MIC unitssymbol=µg/mL modifier== measuredvalue=1000
molecule=O=C(N/N=C/c1cc(O)ccc1O)c1ccc(I)cc1 testreadout=MIC unitssymbol=µg/mL modifier== measuredvalue=500
molecule=O=C(N/N=C/c1cc(Cl)cc(I)c1O)c1ccc(I)cc1 testreadout=MIC unitssymbol=µg/mL modifier== measuredvalue=125
molecule="NNC(=O)c1cccc(I)c1 [Compound 5, 3-iodobenzohydrazide]" testreadout=MIC unitssymbol=µg/mL modifier== measuredvalue=1000
molecule=O=C(N/N=C/c1cccc([N+](=O)[O-])c1O)c1ccccc1I testreadout=MIC unitssymbol=µg/mL modifier== measuredvalue=1000
molecule=O=C(N/N=C/c1cc(Cl)cc(Cl)c1O)c1cccc(I)c1 testreadout=MIC unitssymbol=µg/mL modifier== measuredvalue=7.81
molecule="NNC(=O)c1ccccc1I [Compound 4, 2-iodobenzohydrazide]" testreadout=MIC unitssymbol=µg/mL modifier=> measuredvalue=1000
molecule=O=C(N/N=C/c1cc(O)ccc1O)c1cccc(I)c1 testreadout=MIC unitssymbol=µg/mL modifier=> measuredvalue=1000
molecule=O=C(N/N=C/c1cc(O)ccc1O)c1ccccc1I testreadout=MIC unitssymbol=µg/mL modifier=> measuredvalue=1000

* * *

- System: Staphylococcus epidermidis ATCC 12228
- methodNotes: Broth microdilution MIC/MBC
- conditionDetails: ATCC12228
testReadout: MBC (µg/mL)

compound="O=C(N/N=C/c1cc(I)cc(I)c1O)c1ccccc1I [Compound 14]" targetorsystem="Staphylococcus epidermidis ATCC 12228" unitssymbol=µg/mL modifier== measuredvalue=250
compound="O=C(N/N=C/c1ccccc1O)c1ccc(I)cc1 [Compound 23]" targetorsystem="Staphylococcus epidermidis ATCC 12228" unitssymbol=µg/mL modifier=> measuredvalue=1000
compound="NNC(=O)c1ccccc1I [Compound 4, 2-iodobenzohydrazide]" targetorsystem="Staphylococcus epidermidis ATCC 12228" unitssymbol=µg/mL modifier=> measuredvalue=1000
compound="O=C(N/N=C/c1cc(Cl)cc(Cl)c1O)c1cccc(I)c1 [Compound 17]" targetorsystem="Staphylococcus epidermidis ATCC 12228" unitssymbol=µg/mL modifier== measuredvalue=62.5
compound="CCOc1cccc(/C=N/NC(=O)c2ccc(I)cc2)c1O [Compound 25]" targetorsystem="Staphylococcus epidermidis ATCC 12228" unitssymbol=µg/mL modifier=> measuredvalue=1000
compound="O=C1CN(/N=C/c2ccc([N+](=O)[O-])o2)C(=O)N1 [NIT, nitrofurantoin, reference compound]" targetorsystem="Staphylococcus epidermidis ATCC 12228" unitssymbol=µg/mL modifier== measuredvalue=7.81
compound="CCOc1cccc(/C=N/NC(=O)c2cccc(I)c2)c1O [Compound 18]" targetorsystem="Staphylococcus epidermidis ATCC 12228" unitssymbol=µg/mL modifier=> measuredvalue=1000
compound="O=C(N/N=C/c1cc(O)ccc1O)c1ccc(I)cc1 [Compound 26]" targetorsystem="Staphylococcus epidermidis ATCC 12228" unitssymbol=µg/mL modifier=> measuredvalue=1000
compound="NNC(=O)c1cccc(I)c1 [Compound 5, 3-iodobenzohydrazide]" targetorsystem="Staphylococcus epidermidis ATCC 12228" unitssymbol=µg/mL modifier=> measuredvalue=1000
compound="O=C(N/N=C/c1cc(Cl)cc(I)c1O)c1cccc(I)c1 [Compound 20]" targetorsystem="Staphylococcus epidermidis ATCC 12228" unitssymbol=µg/mL modifier== measuredvalue=7.81
compound="NNC(=O)c1ccc(I)cc1 [Compound 6, 4-iodobenzohydrazide]" targetorsystem="Staphylococcus epidermidis ATCC 12228" unitssymbol=µg/mL modifier=> measuredvalue=1000
compound="O=C(N/N=C/c1cccc([N+](=O)[O-])c1O)c1ccccc1I [Compound 7]" targetorsystem="Staphylococcus epidermidis ATCC 12228" unitssymbol=µg/mL modifier== measuredvalue=1000
compound="O=C(N/N=C/c1cc(Cl)cc(I)c1O)c1ccc(I)cc1 [Compound 27]" targetorsystem="Staphylococcus epidermidis ATCC 12228" unitssymbol=µg/mL modifier== measuredvalue=31.2
compound="O=C(N/N=C/c1cccc([N+](=O)[O-])c1O)c1cccc(I)c1 [Compound 15]" targetorsystem="Staphylococcus epidermidis ATCC 12228" unitssymbol=µg/mL modifier== measuredvalue=125
compound="O=C(N/N=C/c1cc(Cl)cc(I)c1O)c1ccccc1I [Compound 12]" targetorsystem="Staphylococcus epidermidis ATCC 12228" unitssymbol=µg/mL modifier== measuredvalue=500
compound="O=C(N/N=C/c1cc(Br)cc(Br)c1O)c1cccc(I)c1 [Compound 21]" targetorsystem="Staphylococcus epidermidis ATCC 12228" unitssymbol=µg/mL modifier== measuredvalue=31.2

Data credit: paper PMC11356900
